pIC50 by entry:
biological target: UniProt P09874; test: PARP1 biochemical DELFIA assay (auto-PARylation); parameters: recombinant full length human N-terminally FLAG-tagged PARP1; details: binned IC50, PARP1 biochemical DELFIA assay
pIC50: −log10 of the molar value.

{"COMPOUND": "CNC(=O)c1ccc(N2CCC(N3CCC(c4nc5c(c(C(F)(F)F)cn5C)c(=O)[nH]4)C3)CC2)cn1 (single isomer, unassigned) [Compound 170a]", "OBSERVED": "> 8.00"}

Could you now look at the following compound, please?
Value (pIC50, UniProt P09874) for record CNC(=O)c1ccc(OCCN2CCCC(Cc3nc4ccccc4c(=O)[nH]3)C2)cn1 (single isomer, unassigned) [Compound 14b] = 7.00 to 8.00

---

Target: N-terminally FLAG-tagged PARP2 (amino acids 1-583) (Homo sapiens, UniProt Q9UGN5)
Construct: N-terminally FLAG-tagged PARP2 (amino acids 1-583)
Sequence (Q9UGN5 whole entry, the tested form may be a part): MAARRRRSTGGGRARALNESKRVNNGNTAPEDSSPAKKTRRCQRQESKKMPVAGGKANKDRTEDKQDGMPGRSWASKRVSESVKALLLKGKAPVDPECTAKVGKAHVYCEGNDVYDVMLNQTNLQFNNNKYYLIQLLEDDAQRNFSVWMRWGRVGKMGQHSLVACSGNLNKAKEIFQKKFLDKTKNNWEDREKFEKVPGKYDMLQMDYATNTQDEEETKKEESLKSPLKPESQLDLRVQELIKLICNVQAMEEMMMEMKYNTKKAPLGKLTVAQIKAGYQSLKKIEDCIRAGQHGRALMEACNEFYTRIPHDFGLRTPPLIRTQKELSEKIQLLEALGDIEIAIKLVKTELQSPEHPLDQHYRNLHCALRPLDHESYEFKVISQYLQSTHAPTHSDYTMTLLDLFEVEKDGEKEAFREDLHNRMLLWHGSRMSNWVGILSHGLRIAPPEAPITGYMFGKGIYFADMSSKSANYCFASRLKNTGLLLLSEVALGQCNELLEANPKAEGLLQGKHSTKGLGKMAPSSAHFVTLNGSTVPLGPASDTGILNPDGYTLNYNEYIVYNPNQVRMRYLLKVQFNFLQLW
Experiment: PARP2 probe displacement HTRF assay
Type: binding
Details: binned Kd, PARP2 probe displacement HTRF
Method: Data analysis was performed identical as for PARP1.
Kd by entry:

Study these solved cases before continuing.
{"MOLECULE": "CNC(=O)c1ccc(OCCN2CCCC(c3nc4ccccc4c(=O)[nH]3)C2)cn1 (single isomer, unassigned) [Compound 65b]", "Kd": "1 to 10 µM"}
{"MOLECULE": "CNC(=O)c1ccc(N2CCC(N3CCCC(c4nc5ccncc5c(=O)[nH]4)C3)CC2)cn1 (single isomer, unassigned) [Compound 93b]", "Kd": "> 10 µM"}
{"MOLECULE": "CNC(=O)c1ccc(N2CCC(N3CCC(c4nc5c(F)cccc5c(=O)[nH]4)C3)CC2)cn1 (single isomer, unassigned) [Compound 121a]", "Kd": "0.1 to 1 µM"}
{"MOLECULE": "COCCNC(=O)c1ccc(N2CCC(N3CCC(c4nc5ccccc5c(=O)[nH]4)C3)CC2)cn1 (racemic)", "Kd": "0.1 to 1 µM"}

Record CNC(=O)c1ccc(N2CCC(N3CCC(c4ccc(COC)c(=O)[nH]4)C3)CC2)cn1 (single isomer, unassigned) [Compound 207b] . Reported Kd: > 10 µM

---

Kd by entry:
molecular target: full length N-terminally FLAG-tagged PARP1 (Homo sapiens, UniProt P09874); experiment: PARP1 probe displacement HTRF assay; settings: read-out: PARP1 HTRF; binned Kd, PARP1 probe displacement HTRF
Sequence (P09874 whole entry): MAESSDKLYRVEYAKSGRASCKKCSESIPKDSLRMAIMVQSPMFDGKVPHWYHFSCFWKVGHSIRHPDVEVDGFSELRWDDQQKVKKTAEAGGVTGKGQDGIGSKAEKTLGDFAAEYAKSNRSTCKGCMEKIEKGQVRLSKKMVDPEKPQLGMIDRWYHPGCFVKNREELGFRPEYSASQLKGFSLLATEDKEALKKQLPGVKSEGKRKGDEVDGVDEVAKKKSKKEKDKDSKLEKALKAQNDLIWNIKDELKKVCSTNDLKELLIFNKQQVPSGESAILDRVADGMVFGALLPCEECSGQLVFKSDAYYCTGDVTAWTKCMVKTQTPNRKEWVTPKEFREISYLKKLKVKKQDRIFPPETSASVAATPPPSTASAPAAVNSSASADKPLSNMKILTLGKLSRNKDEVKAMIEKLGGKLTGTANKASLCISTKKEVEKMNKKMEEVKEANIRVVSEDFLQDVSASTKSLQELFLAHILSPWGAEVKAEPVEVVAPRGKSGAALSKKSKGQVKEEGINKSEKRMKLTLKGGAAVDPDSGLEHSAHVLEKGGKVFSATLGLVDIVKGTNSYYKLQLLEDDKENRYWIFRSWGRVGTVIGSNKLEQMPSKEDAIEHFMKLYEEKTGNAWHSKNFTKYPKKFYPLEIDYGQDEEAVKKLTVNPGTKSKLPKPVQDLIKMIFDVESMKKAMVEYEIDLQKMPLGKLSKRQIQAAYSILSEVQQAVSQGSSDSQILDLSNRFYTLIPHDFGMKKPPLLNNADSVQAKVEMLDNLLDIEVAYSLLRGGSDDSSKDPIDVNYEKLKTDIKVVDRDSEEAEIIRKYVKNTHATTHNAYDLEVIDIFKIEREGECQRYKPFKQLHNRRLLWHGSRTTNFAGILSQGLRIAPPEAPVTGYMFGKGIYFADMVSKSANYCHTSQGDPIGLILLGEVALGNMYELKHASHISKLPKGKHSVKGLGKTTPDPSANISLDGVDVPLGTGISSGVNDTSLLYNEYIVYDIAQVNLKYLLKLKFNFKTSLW

Study these solved cases before continuing.
{"MOLECULE": "CNC(=O)c1ccc(N2CCC(N3CCC(c4nc5ccccc5c(=O)[nH]4)C3)CC2)nc1 (single isomer, unassigned) [Compound 46a]", "Kd": "10 to 100 nM"}
{"MOLECULE": "CCc1ccc(C2CCN(C3CCN(c4ccc(C(N)=O)nc4)CC3)C2)[nH]c1=O (racemic)", "Kd": "< 10 nM"}
{"MOLECULE": "CNC(=O)c1ccc(N2CCC(N3CCC(c4nc5c(F)cc(F)cc5c(=O)[nH]4)C3)CC2)cn1 (single isomer, unassigned) [Compound 181a]", "Kd": "10 to 100 nM"}
{"MOLECULE": "CNC(=O)c1ccc(N2CCC(N3CCC(c4ccc(COC)c(=O)[nH]4)C3)CC2)cn1 (single isomer, unassigned) [Compound 207b]", "Kd": "100 to 1000 nM"}
{"MOLECULE": "CNC(=O)c1ccc(N2CCC(CN3CCC(c4nc5ccccc5c(=O)[nH]4)CC3)C2)cn1 (single isomer, unassigned) [Compound 50b]", "Kd": "10 to 100 nM"}
{"MOLECULE": "CNC(=O)c1ccc(N2CCC(N3CCCC(c4nc5cnccc5c(=O)[nH]4)C3)CC2)cn1 (single isomer, unassigned) [Compound 106a]", "Kd": "100 to 1000 nM"}

Value (Kd, full length N-terminally FLAG-tagged PARP1 (Homo sapiens, UniProt P09874)) for record CNC(=O)c1ccc(N2CCC(N3CCCC(c4nc5c(c(=O)[nH]4)CCCC5)C3)CC2)cn1 (single isomer, unassigned) [Compound 146b] = 10 to 100 nM

Value (Kd, full length N-terminally FLAG-tagged PARP1 (Homo sapiens, UniProt P09874)) for record CCc1ccc(C2CCN(C3CCN(c4ccc(C(=O)NC)nc4Cl)CC3)C2)[nH]c1=O (racemic) = < 10 nM
